Documented Ki across a set of molecules
experiment: Inhibition of human MetAp1a by Morrison method
Measure: Ki (nM)

compound_string=Cc1nc(-c2ccccn2)nc(SCC(=O)N2CCOCC2)c1Cl value_measured=170
compound_string=FC(F)(F)c1cccc(-c2nc(-c3ccccn3)ncc2-c2nnnn2-c2ccccc2)c1 value_measured=43900
compound_string=Cc1nc(-c2ccccn2)nc(N2CCN(C)CC2)c1Cl value_measured=290

====

experiment: Inhibition of Vibrio parahaemolyticus MetAp1a by Morrison method
Please use rule met for Ki under 3 µM and rule not met for everything else, ties included.

compound_string=Cc1nc(-c2ccc(C(F)(F)F)cn2)nc(Sc2ccc(Cl)cc2)c1Cl class="rule not met"
compound_string=Cc1nc(-c2ccccn2)nc(N2CCN(C)CC2)c1Cl class="rule met"
compound_string=CC(=O)Nc1cc(O)nc(-c2ccccn2)n1 class="rule met"
compound_string=Oc1cc(C(F)(F)F)nc(-c2ccccn2)n1 class="rule met"
compound_string=FC(F)(F)c1cc(Nc2cc(Cl)cc(Cl)c2)nc(-c2ccccn2)n1 class="rule met"
compound_string=Cc1nc(-c2ccccn2)nc(O)c1Cc1c(Cl)cccc1Cl class="rule met"
compound_string=COc1ccc(C(=O)CSc2nc(-c3ccccn3)nc(C)c2Cl)cc1 class="rule not met"
compound_string=Cc1nc(-c2ccccn2)nc(NCCc2ccccc2)c1Cl class="rule not met"
compound_string=CCOC(=O)c1cnc(-c2ccccn2)nc1O class="rule met"
compound_string=Cc1nc(-c2ccccn2)nc(N2CCN(CCO)CC2)c1Cl class="rule not met"
compound_string=CCCCCc1c(C)nc(-c2ccccn2)nc1O class="rule not met"
compound_string=CSc1nc(-c2ccccn2)nc(N)c1C#N class="rule met"
compound_string=CCCc1nc(-c2ccccn2)nc(O)c1CC1CC1 class="rule met"
